# experiment: xn = mol fraction of the nth substance listed
# test conditions: 308.15 K, Wilhelmy plate method, x1 = 0.9
Kindly supply the reported surface tension liquid-gas values for the records listed here.
I only need the number, in mN/m, no unit after it.

Dear colleague, I am looking for the recorded surface tension liquid-gas of the following compound: CCOC(=O)CC(C)C [ethyl 3-methylbutanoate] + CCO
22.36

Consider the compound shown here: CCOC(=O)c1ccccc1O [ethyl 2-hydroxybenzoate] + CCO What is its recorded surface tension liquid-gas?
33.03

Query: surface tension liquid-gas; subject: COC(=O)c1ccccc1 [methyl benzoate] + CCO
33.8

Could you tell me which surface tension liquid-gas is on file for CC(=O)OCc1ccccc1 [benzyl ethanoate] + CCO ?
33.7

Can you share its surface tension liquid-gas? I mean this compound: CCC(=O)OCc1ccccc1 [benzyl propanoate] + CCO
32.1

Name the recorded surface tension liquid-gas for CCOC(=O)CC(C)=O [ethyl 3-oxobutanoate] + CCO .
30.26
